// read-out IC50, gathered for Sphingosine kinase 1 (Homo sapiens) from published studies

Answered examples (4):
[[record]]
compound = "CC1(C)CCC(C)(C)c2cc(-c3csc(N4CCCC(CCO)C4)n3)ccc21 (centres unmarked)"
measurement_type = "IC50"
result = "100 to 1000 nM"

[[record]]
compound = "CC1(C)CCC(C)(C)c2cc(-c3csc(N4CCC(NC[C@H](O)CO)CC4)n3)ccc21"
measurement_type = "IC50"
result = "< 100 nM"

[[record]]
compound = "CC1(C)CCCc2ccc(-c3cccc(N4CCN(CCCCCO)CC4)n3)cc21"
measurement_type = "IC50"
result = "> 1000 nM"

[[record]]
compound = "CC1(C)CCC(C)(C)c2cc(-c3csc(C4CCN(C(=O)C5CNCCO5)CC4)n3)ccc21 (centres unmarked)"
measurement_type = "IC50"
result = "10 to 1000 nM"


Please look at the following compound next.
Looking up CC1(C)CCCc2cc(-c3csc(C4CCN(CCCCO)C4)n3)ccc21 (centres unmarked) , I found its IC50 recorded as 100 to 1000 nM

----------
pIC50: −log10 of the molar value.
// read-out pIC50, gathered for Sphingosine kinase 1 (Homo sapiens) from published studies

Answered examples (10):
[[record]]
compound = "CC1(C)CCC(C)(C)c2cc(-c3csc(C4CCN(CCCN5CCCCC5)CC4)n3)ccc21"
measurement_type = "pIC50"
result = "6.00 to 8.00"

[[record]]
compound = "OC[C@@H](O)CN1CCC(c2nc(-c3ccc4c(c3)CCCC4)cs2)CC1"
measurement_type = "pIC50"
result = "5.00 to 6.00"

[[record]]
compound = "CC1(C)CCC(C)(C)c2cc(-c3cncc(N4CCNCC4)n3)ccc21"
measurement_type = "pIC50"
result = "< 6.00"

[[record]]
compound = "CC1(C)CCCc2cc(-c3csc(C4CCNC4)n3)ccc21 (stereo not shown)"
measurement_type = "pIC50"
result = "6.00 to 7.00"

[[record]]
compound = "Cc1cc(-c2csc(C3CCNCC3)n2)c(O)c2c1CCC2"
measurement_type = "pIC50"
result = "5.00 to 6.00"

[[record]]
compound = "CC1(C)CCc2cc(-c3cccc(N4CCN(CCCCO)CC4)n3)ccc21"
measurement_type = "pIC50"
result = "< 6.00"

[[record]]
compound = "CC1(C)CCC(C)(C)c2cc(-c3csc(C4CCN(CCCCN5CCOCC5)CC4)n3)ccc21"
measurement_type = "pIC50"
result = "6.00 to 8.00"

[[record]]
compound = "CC1(C)CCC(C)(C)c2cc(-c3csc(C4CCN(Cc5ncc[nH]5)CC4)n3)ccc21"
measurement_type = "pIC50"
result = "6.00 to 8.00"

[[record]]
compound = "CN(C)n1cccc1CN1CCC(c2nc(-c3ccc4c(c3)C(C)(C)CCC4(C)C)cs2)CC1"
measurement_type = "pIC50"
result = "5.00 to 6.00"

[[record]]
compound = "CC1(C)CCC(C)(C)c2cc(-c3csc(C4CCCN(CCO)C4)n3)ccc21 (stereo not shown)"
measurement_type = "pIC50"
result = "6.00 to 7.00"


Looking up CC1(C)CCc2cc(-c3cccc(N4CCN(CCCCCO)CC4)n3)ccc21 , I found its pIC50 recorded as < 6.00

Looking up Cn1cnc(CN2CCC(c3nc(-c4ccc5c(c4)C(C)(C)CCC5(C)C)cs3)CC2)c1 , I found its pIC50 recorded as 5.00 to 6.00

Looking up CC1(C)CCc2cc(-c3cccc(N4CCNCC4)n3)ccc21 , I found its pIC50 recorded as < 6.00

Looking up CC1(C)CCC(C)(C)c2cc(-c3csc(C4CCN(CCO)CC4)n3)ccc21 , I found its pIC50 recorded as 6.00 to 8.00

Looking up COCCOc1ccc(-c2ccc3c(c2)C(C)(C)CCC3(C)C)nc1N1CCNCC1 , I found its pIC50 recorded as < 6.00

Looking up CC1(C)CCC(C)(C)c2cc(-c3csc(N4CCN(C5CCCCC5O)CC4)n3)ccc21 (stereo not shown) , I found its pIC50 recorded as 6.00 to 7.00

Looking up CC1(C)CCC(C)(C)c2cc(-c3csc(N4CCN(CCCCO)CC4)n3)ccc21 , I found its pIC50 recorded as 6.00 to 7.00

Looking up CC1(C)CCC(C)(C)c2cc(-c3cccc(N4CCNCC4)n3)ccc21 , I found its pIC50 recorded as 6.00 to 7.00

Looking up CC1(C)CCC(C)(C)c2cc(-c3csc(N4CCC(NC[C@@H](N)CO)CC4)n3)ccc21 , I found its pIC50 recorded as 6.00 to 7.00

Looking up CC1(C)CCC(C)(C)c2cc(-c3csc(C4CCN(CC5CNC(=O)O5)CC4)n3)ccc21 (stereo not shown) , I found its pIC50 recorded as 5.00 to 6.00

Looking up CCOC(=O)C1CCN(c2nc(-c3ccc4c(c3)C(C)(C)CCC4(C)C)cs2)CC1 , I found its pIC50 recorded as < 6.00

Looking up Cc1[nH]cnc1CN1CCC(c2nc(-c3ccc4c(c3)C(C)(C)CCC4(C)C)cs2)CC1 , I found its pIC50 recorded as 6.00 to 8.00

Looking up CC1(C)CCC(C)(C)c2cc(-c3csc(C4CCN(CCN5CCOCC5)CC4)n3)ccc21 , I found its pIC50 recorded as 5.00 to 6.00

Looking up CN1CCC(c2nc(-c3ccc4c(c3)C(C)(C)CCC4(C)C)cs2)CC1 , I found its pIC50 recorded as 6.00 to 8.00

Looking up CC1(C)CCC(C)(C)c2cc(-c3cccc(C4CCNCC4)n3)ccc21 , I found its pIC50 recorded as 6.00 to 7.00

Looking up CC1(C)CCCc2cc(-c3csc(C4CCN(CCCCO)CC4)n3)ccc21 , I found its pIC50 recorded as 6.00 to 8.00

Looking up CC(=O)N1CCC(c2csc(-c3ccc4c(c3)C(C)(C)CCC4(C)C)n2)CC1 , I found its pIC50 recorded as 6.00 to 7.00

Looking up CC1(C)CCC(C)(C)c2cc(-c3cccc(N4CCN(CCCO)CC4)n3)ccc21 , I found its pIC50 recorded as 6.00 to 7.00

Looking up CC1(C)CCC(C)(C)c2cc(-c3cccc(N4CCC(NCCCCO)CC4)n3)ccc21 , I found its pIC50 recorded as > 7.00

Looking up CC1(C)CCCc2cc(-c3ncnc(N4CCNCC4)n3)ccc21 , I found its pIC50 recorded as < 6.00

Looking up CC1(C)CCC(C)(C)c2cc(-c3csc(C4CCN(C(=O)Cc5ccncc5)CC4)n3)ccc21 , I found its pIC50 recorded as 5.00 to 6.00

Looking up CC1(C)CCC(C)(C)c2cc(-c3csc(N4CCC(CN)CC4)n3)ccc21 , I found its pIC50 recorded as 6.00 to 7.00

Looking up CN(C)CCCNC(=O)N1CCC(c2nc(-c3ccc4c(c3)C(C)(C)CCC4(C)C)cs2)CC1 , I found its pIC50 recorded as 5.00 to 6.00
